- Subject of test: p101/p110γ protein (PI3Kγ) (Homo sapiens)
- Construct: HA
- Method description: PI3Kγ In Vitro Kinase Assay
- Condition info: purified recombinant p101/p110γ with G protein β1/γ2 subunits; 20 μM ATP, 25 μM PIP2; 20 minutes at room temperature; radioactive PIP3 readout
pIC50: −log10 of the molar value.
Reported pIC50 is given for each of the following molecules.
Property measured: pIC50

[
  {
    "Molecule": "CC1CCCCC1C(=O)N1CCOc2ccc(C=C3SC(=S)NC3=O)cc21 (centres unmarked)",
    "Readout number": 7.05
  },
  {
    "Molecule": "O=C1NC(=S)SC1=Cc1ccc2c(c1)N(C(=O)COc1ccc(Cl)cc1)CCCO2",
    "Readout number": 5.69
  },
  {
    "Molecule": "O=C1NC(=S)SC1=Cc1ccc2c(c1)N(C(=O)Cc1ccc3ccccc3c1)CCO2",
    "Readout number": 7.28
  },
  {
    "Molecule": "Cc1cc(C(=O)N2CCOc3ccc(C=C4SC(=S)NC4=O)cc32)no1",
    "Readout number": 6.94
  },
  {
    "Molecule": "O=C1NC(=S)SC1=Cc1ccc2c(c1)N(C(=O)Cc1ccccc1)CCO2",
    "Readout number": 7.26
  },
  {
    "Molecule": "O=C1NC(=S)SC1=Cc1ccc2c(c1)N(C(=O)c1ccc3nonc3c1)CCO2",
    "Readout number": 6.25
  },
  {
    "Molecule": "CCCCC(CC)C(=O)N1CCOc2ccc(C=C3SC(=S)NC3=O)cc21 (centres unmarked)",
    "Readout number": 6.56
  },
  {
    "Molecule": "CC(C)(C)c1cc(C(=O)N2CCOc3ccc(C=C4SC(=S)NC4=O)cc32)cc(C(C)(C)C)c1",
    "Readout number": 5.42
  },
  {
    "Molecule": "O=C1NC(=S)SC1=Cc1ccc2c(c1)NCCO2",
    "Readout number": 6.80
  },
  {
    "Molecule": "COc1cc(CN2CCCOc3ccc(C=C4SC(=S)NC4=O)cc32)cc(OC)c1",
    "Readout number": 6.82
  },
  {
    "Molecule": "O=C1NC(=S)SC1=Cc1ccc2c(c1)N(C(=O)Oc1cccc3ccccc13)CCO2",
    "Readout number": 8.22
  }
]

---

- Subject of test: p101/p110γ protein (PI3Kγ) (Homo sapiens, UniProt P48736)
- Construct: HA
- Sequence (P48736 whole entry, species assumed): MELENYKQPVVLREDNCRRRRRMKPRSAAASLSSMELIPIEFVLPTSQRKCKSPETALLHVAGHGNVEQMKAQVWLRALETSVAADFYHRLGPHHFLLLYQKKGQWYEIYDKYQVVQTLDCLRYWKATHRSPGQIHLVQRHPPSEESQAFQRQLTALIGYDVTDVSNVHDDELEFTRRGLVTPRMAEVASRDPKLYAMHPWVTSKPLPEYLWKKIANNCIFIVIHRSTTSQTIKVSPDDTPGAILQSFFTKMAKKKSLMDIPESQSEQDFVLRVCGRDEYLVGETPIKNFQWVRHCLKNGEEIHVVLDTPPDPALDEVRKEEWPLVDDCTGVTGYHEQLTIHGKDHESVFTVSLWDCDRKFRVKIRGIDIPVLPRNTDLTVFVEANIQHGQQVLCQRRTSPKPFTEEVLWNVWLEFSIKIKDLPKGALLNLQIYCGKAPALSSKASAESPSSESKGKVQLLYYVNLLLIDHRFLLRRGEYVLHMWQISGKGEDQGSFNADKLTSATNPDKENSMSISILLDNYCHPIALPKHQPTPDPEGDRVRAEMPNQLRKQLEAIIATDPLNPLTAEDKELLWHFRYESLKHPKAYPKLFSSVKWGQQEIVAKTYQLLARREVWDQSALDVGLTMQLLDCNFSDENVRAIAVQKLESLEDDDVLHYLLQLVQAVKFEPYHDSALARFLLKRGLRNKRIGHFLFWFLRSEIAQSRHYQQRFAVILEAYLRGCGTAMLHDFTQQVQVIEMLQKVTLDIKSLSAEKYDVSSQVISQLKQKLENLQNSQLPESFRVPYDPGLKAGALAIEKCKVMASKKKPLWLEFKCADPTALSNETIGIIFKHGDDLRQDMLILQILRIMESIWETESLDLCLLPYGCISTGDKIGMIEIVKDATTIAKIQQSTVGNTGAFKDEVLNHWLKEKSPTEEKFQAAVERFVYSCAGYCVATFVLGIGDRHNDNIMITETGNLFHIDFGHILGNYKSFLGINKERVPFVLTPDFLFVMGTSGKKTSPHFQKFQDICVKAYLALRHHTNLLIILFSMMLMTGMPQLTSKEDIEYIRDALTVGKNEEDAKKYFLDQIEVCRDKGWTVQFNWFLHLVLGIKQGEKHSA
- Sequence (Q8WYR1 whole entry partner, species assumed): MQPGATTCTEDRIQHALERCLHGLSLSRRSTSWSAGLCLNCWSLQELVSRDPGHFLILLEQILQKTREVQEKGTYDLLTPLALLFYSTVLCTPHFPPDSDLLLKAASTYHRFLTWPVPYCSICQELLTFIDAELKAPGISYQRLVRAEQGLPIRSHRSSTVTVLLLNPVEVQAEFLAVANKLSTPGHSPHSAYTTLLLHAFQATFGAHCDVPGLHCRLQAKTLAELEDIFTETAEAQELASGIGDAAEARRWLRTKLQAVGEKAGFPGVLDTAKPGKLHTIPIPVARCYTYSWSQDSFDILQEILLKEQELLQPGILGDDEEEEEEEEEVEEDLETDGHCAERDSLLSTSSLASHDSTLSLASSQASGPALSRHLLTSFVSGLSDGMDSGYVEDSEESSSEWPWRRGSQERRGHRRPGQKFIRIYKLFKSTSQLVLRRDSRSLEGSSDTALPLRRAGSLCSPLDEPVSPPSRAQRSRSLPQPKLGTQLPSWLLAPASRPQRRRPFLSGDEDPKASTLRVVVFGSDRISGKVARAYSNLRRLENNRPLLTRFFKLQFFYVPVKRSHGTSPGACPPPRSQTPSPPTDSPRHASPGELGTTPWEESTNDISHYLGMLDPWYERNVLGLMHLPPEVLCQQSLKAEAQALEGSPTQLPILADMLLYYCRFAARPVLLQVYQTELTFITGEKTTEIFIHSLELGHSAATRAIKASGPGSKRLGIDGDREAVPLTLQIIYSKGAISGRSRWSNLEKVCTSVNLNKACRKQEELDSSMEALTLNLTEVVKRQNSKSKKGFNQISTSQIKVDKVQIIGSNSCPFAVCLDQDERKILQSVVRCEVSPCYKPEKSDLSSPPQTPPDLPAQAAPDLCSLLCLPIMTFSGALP
- Method description: PI3Kγ In Vitro Kinase Assay
- Condition info: purified recombinant p101/p110γ with G protein β1/γ2 subunits; 20 μM ATP, 25 μM PIP2; 20 minutes at room temperature; radioactive PIP3 readout
pIC50: −log10 of the molar value.
Property measured: pIC50

[
  {
    "Chemical smiles": "CC(C)(C)c1cc(CN2CCOc3ccc(C=C4SC(=S)NC4=O)cc32)cc(C(C)(C)C)c1",
    "Subject of test": "p101/p110γ protein (PI3Kγ) (Homo sapiens, UniProt P48736)",
    "Readout number": 5.73
  },
  {
    "Chemical smiles": "O=C1NC(=S)SC1=Cc1ccc2c(c1)N(C(=O)c1cc(Cl)cc(Cl)c1)CCO2",
    "Subject of test": "p101/p110γ protein (PI3Kγ) (Homo sapiens, UniProt P48736)",
    "Readout number": 6.84
  },
  {
    "Chemical smiles": "O=C1NC(=S)SC1=Cc1ccc2c(c1)N(C(=O)c1ccc(-c3ccccc3)cc1)CCO2",
    "Subject of test": "p101/p110γ protein (PI3Kγ) (Homo sapiens, UniProt P48736)",
    "Readout number": 6.25
  }
]
